target: binding partner of C5A (XPA23); experiment: Biacore K-off
Assay readout: fold difference in affinity vs original (fold)
// units = fold; emit number, no label

Sample answers from the record:
Item: C5A (XPA23) VL S50T (antibody, V domains shown) VH: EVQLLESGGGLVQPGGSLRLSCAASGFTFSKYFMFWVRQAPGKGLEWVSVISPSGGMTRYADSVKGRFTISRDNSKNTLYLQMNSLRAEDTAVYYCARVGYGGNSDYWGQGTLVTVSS VL: DIQMTQSPSSVSASVGDRLTIICRASQDINRWLAWYQQTPGNAPKLLIHTATSLQSGVPSRFSGSGSGTDFTLTINSLQPEDFATYYCQQADSFPLTFGGGTKVEIK | fold difference in affinity vs original: 0.87

Entry C5A (XPA23) VL S50L (antibody, V domains shown) VH: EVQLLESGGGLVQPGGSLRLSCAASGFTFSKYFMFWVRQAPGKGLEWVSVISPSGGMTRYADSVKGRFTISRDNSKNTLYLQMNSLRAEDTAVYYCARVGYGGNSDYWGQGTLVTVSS VL: DIQMTQSPSSVSASVGDRLTIICRASQDINRWLAWYQQTPGNAPKLLIHLATSLQSGVPSRFSGSGSGTDFTLTINSLQPEDFATYYCQQADSFPLTFGGGTKVEIK , fold difference in affinity vs original reported as 0.49

Now turn to the next binder.
C5A (XPA23) VL A51P (antibody, V domains shown) VH: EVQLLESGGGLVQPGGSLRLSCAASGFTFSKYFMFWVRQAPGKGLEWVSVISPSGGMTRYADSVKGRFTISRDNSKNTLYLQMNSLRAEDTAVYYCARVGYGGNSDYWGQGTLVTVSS VL: DIQMTQSPSSVSASVGDRLTIICRASQDINRWLAWYQQTPGNAPKLLIHSPTSLQSGVPSRFSGSGSGTDFTLTINSLQPEDFATYYCQQADSFPLTFGGGTKVEIK has a reported fold difference in affinity vs original of 0.13

Values were extracted from patent US20110118447A1.
